Reported IC50 values for the following compounds.
# subject of test: recombinant human liver glycogen phosphorylase (Homo sapiens, UniProt P06737)
# Construct: made in house; host or cells: Sf9 insect cells (crude homogenate, diluted, used as the enzyme solution)
# Sequence (P06737 whole entry): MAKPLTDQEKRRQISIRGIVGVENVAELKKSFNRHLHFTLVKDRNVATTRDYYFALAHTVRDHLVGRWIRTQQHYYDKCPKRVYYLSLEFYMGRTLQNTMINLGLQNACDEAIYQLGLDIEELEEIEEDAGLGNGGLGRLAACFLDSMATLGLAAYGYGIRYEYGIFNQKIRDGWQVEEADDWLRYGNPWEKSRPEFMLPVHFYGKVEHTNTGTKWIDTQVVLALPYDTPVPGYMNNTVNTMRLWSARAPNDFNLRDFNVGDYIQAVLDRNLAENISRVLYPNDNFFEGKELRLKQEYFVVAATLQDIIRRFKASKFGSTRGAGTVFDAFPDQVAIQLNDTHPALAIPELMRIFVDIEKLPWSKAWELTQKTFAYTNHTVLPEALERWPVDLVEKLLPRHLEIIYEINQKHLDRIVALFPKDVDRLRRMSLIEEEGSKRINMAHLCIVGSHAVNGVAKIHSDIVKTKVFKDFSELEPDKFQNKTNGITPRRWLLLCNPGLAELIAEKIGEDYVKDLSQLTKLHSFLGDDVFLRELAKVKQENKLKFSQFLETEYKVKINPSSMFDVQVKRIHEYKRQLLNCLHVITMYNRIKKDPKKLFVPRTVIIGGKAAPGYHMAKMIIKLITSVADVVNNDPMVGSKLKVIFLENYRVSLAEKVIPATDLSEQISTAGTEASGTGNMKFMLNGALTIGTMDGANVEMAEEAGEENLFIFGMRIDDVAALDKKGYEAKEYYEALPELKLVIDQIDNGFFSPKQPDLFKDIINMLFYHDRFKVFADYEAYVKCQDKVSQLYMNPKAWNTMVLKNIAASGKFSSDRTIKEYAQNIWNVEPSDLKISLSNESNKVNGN
# protocol details: Measuring liver glycogen phosphorylase activity (forward reaction system, NADPH absorbance at 340 nm)
# Format: biochemical
# stated conditions: enzyme inhibitory activity with respect to liver glycogen phosphorylase; class symbols

* O=C(NCc1cnccn1)c1cc(NC(=O)c2cc(F)c(F)cc2Cl)[nH]n1 | < 100 nM
* CCCN(C(=O)c1cc(NC(=O)c2cc(F)c(F)cc2Cl)[nH]n1)C1CCN(C(=O)C(=O)O)CC1 | < 100 nM
* Cc1cc(Cl)ccc1C(=O)Nc1cc(C(=O)NCc2ccccc2)n[nH]1 | 100 to 300 nM
* Cc1cccc(C)c1CNC(=O)c1cc(NC(=O)c2cc(F)c(F)cc2Cl)[nH]n1 | < 100 nM
* COC(=O)CCNC(=O)c1ccc(CNC(=O)c2cc(NC(=O)c3cc(F)c(F)cc3Cl)[nH]n2)cc1 | < 100 nM

# return recorded IC50 for entry `O=C(Nc1cc(C(=O)N(Cc2ccccn2)C2CCCCC2)n[nH]1)c1cc(F)c(F)cc1Cl`
< 100 nM

# return recorded IC50 for entry `CCN(CCOC)C(=O)c1cc(NC(=O)c2cc(F)c(F)cc2Cl)[nH]n1`
100 to 300 nM

# return recorded IC50 for entry `O=C(NCc1nc2ccccc2s1)c1cc(NC(=O)c2cc(F)c(F)cc2Cl)[nH]n1`
< 100 nM

# return recorded IC50 for entry `COCCN(C(=O)c1cc(NC(=O)c2cc(F)c(F)cc2Cl)[nH]n1)c1ccc(C(=O)O)cc1`
< 100 nM

# return recorded IC50 for entry `O=C(O)CCCN(C(=O)c1cc(NC(=O)c2cc(F)c(F)cc2Cl)[nH]n1)c1ccccc1`
100 to 300 nM
